# measurement description: Biodistribution of 177Lu-labeled αMSH analogues in mice bearing B16F10 mouse melanoma
# Assay type: in vivo, C57BL/6J mice
# experimental setup: mouse, tumour/kidney, iv, total radioactivity; 24 h p.i., C57BL/6J mice, B16F10 melanoma; read-out: Tumour/kidney
quantity name: tissue to tissue ratio at 24 h

[
  {
    "molecule": "CCCC[C@H](NC(=O)CN1CCC(NC(=O)[C@H](CCCCNC(=O)CN2CCN(CC(=O)O)CCN(CC(=O)O)CCN(CC(=O)O)CC2)NC(=O)[C@H](CCC(=O)O)NC(=O)CCCc2ccc(I)cc2)CC1)C(=O)N[C@H]1CC(=O)NCCCC[C@@H](C(N)=O)NC(=O)[C@H](Cc2c[nH]c3ccccc23)NC(=O)[C@H](CCCNC(=N)N)NC(=O)[C@@H](Cc2ccccc2)NC(=O)[C@H](Cc2c[nH]cn2)NC1=O [^177Lu-labeled CCZ01082, metal not drawn]",
    "val": 1.14
  },
  {
    "molecule": "CCCC[C@H](NC(=O)CN1CCC(NC(=O)CN2CCN(CC(=O)O)CCN(CC(=O)O)CCN(CC(=O)O)CC2)CC1)C(=O)N[C@H]1CC(=O)NCCCC[C@@H](C(N)=O)NC(=O)[C@H](Cc2c[nH]c3ccccc23)NC(=O)[C@H](CCCNC(=N)N)NC(=O)[C@@H](Cc2ccccc2)NC(=O)[C@H](Cc2c[nH]cn2)NC1=O [^177Lu-labeled CCZ01048, metal not drawn, reference compound]",
    "val": 2.25
  }
]
